target: His-tagged KRAS G12D protein (Homo sapiens, UniProt P01116, G12D); experiment: KRAS G12D TR-FRET Assay
Sequence (P01116 1-188 isoform P01116-2 G12D): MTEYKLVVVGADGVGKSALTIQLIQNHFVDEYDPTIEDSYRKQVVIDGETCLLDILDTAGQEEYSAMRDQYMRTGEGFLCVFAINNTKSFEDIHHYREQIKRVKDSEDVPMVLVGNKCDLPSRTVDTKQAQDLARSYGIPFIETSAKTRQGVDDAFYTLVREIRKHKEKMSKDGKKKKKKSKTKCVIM
observed_property: IC50 (nM)

Below, 3 compounds whose answers are already recorded.
CC1(O)COCCN(c2nc(OC[C@@]34CCCN3C[C@H](F)C4)nc3c(F)c(-c4cc(O)cc5ccc(F)c(F)c45)c(F)cc23)C1 (single isomer, unassigned) [Example 32]    5
CCc1c(F)ccc2cc(O)cc(-c3c(F)cc4c(N5CCCC6(CNC(=O)O6)C5)nc(OC[C@@]56CCCN5C[C@H](F)C6)nc4c3F)c12 (single isomer, unassigned) [Example 57]    437
CCc1c(F)ccc2cc(O)cc(-c3c(F)cc4c(N5CCC[C@@](C)(O)C5)nc(OC[C@@]56CCCN5C[C@H](F)C6)nc4c3F)c12 (single isomer, unassigned) [Example 2]    1

a. C#Cc1c(F)ccc2cc(N)cc(-c3c(F)cc4c(N5CCOCC(C)(O)C5)nc(OC[C@@]56CCCN5C[C@H](F)C6)nc4c3F)c12 (some centres unmarked) [Example 70]
b. CCc1c(F)ccc2cccc(-c3ccc4c(N5CCCC6(CNC(=O)O6)C5)nc(OC[C@@]56CCCN5C[C@H](F)C6)nc4c3F)c12 (some centres unmarked) [Example 85]
Which of these two has the smaller recorded IC50: a or b ? Label of pick, please.
b
(b: 7 nM, a: 19 nM)

###

target: His-tagged KRAS G12D protein (Homo sapiens, UniProt P01116, G12D); experiment: KRAS G12D TR-FRET Assay
observed_property: IC50 (nM)

Below, 5 molecules whose answers are already recorded.
CCc1c(F)ccc2cc(O)cc(-c3c(F)cc4c(N5CCCC6(CCO6)C5)nc(OC[C@@]56CCCN5C[C@H](F)C6)nc4c3F)c12 (single isomer, unassigned) [Example 38]    12
C/C=C\c1c(Cl)cc2[nH]ncc2c1-c1c(F)cc2c(N3CCC[C@@](C)(O)C3)nc(OC[C@@]34CCCN3C[C@H](F)C4)nc2c1F (single isomer, unassigned) [Example 120]    4
Oc1cc(-c2c(F)cc3c(N4CCCOCC4)nc(OC[C@@]45CCCN4C[C@H](F)C5)nc3c2F)c2ccccc2c1    14
CCc1c(F)ccc2cc(O)cc(-c3c(F)cc4c(N5CCCC(O)(C(F)F)C5)nc(OC[C@@]56CCCN5C[C@H](F)C6)nc4c3F)c12 (single isomer, unassigned) [Example 22]    96
C[C@@H]1C[C@@H]1c1c(Cl)cc2[nH]ncc2c1-c1c(F)cc2c(N3CCOC[C@@](C)(O)C3)nc(OC[C@@]34CCCN3C[C@H](F)C4)nc2c1F (single isomer, unassigned)    7

I. CCc1c(F)ccc2cc(O)cc(-c3ccc4c(N5CCCC6(CCO6)C5)nc(OC[C@@]56CCCN5C[C@H](F)C6)nc4c3F)c12 (some centres unmarked)
II. C/C=C\c1c(Cl)cc2[nH]ncc2c1-c1ccc2c(N3CCOC[C@@](C)(O)C3)nc(OC[C@@]34CCCN3C[C@H](F)C4)nc2c1F
III. CCc1c(F)ccc2cc(O)cc(-c3c(F)cc4c(N5CCOCC(F)(F)C5)nc(OC[C@@]56CCCN5C[C@H](F)C6)nc4c3F)c12
IV. CCc1c(F)ccc2cc(N)cc(-c3c(F)cc4c(N5CCCC6(CNC(=O)O6)C5)nc(OC[C@@]56CCCN5C[C@H](F)C6)nc4c3F)c12 (some centres unmarked)
V. Cc1cc2[nH]ncc2c(-c2c(F)cc3c(N4CCC[C@@](C)(O)C4)nc(OC[C@@]45CCCN4C[C@H](F)C5)nc3c2F)c1Cl
Which order do these items take when sorted by rising IC50? List them. To answer, write out the labels according to the requested order.
IV, II, I, III, V

Sourced from patent US20250179077A1
